experiment: AUC (0 to 24 hrs) in CD1 mouse at 5 mg/kg, po; type: ADME, organism-based; set-up: time < 24 hr, route oral, dose 5 mg/kg; details: in vivo
Readout Name: AUC(0-t) at 24 h (µM·h)

>  <Molecule>
COc1ccc(-c2c(-c3ccc(C#N)c(F)c3)nc(N3CCC(N)CC3)n(C)c2=O)cc1F.O=S(=O)(O)c1ccccc1 [PULRODEMSTAT BESILATE]

>  <Units Of Measure>
µM·h

>  <Readout Value>
1.8

$$$$

====

test: AUC (0 to 6 hrs) in CD1 mouse at 10 mg/kg, po; type: ADME, organism-based; parameters: time < 6 hr, route oral, dose 10 mg/kg; settings: in vivo
Readout Name: AUC(0-t) at 6 h (µM·h)

>  <Molecule>
Cc1ccc(-c2cnc(N3CC[C@@H]4NCC[C@@H]4C3)nc2-c2ccc(C#N)cc2)cc1

>  <Units Of Measure>
µM·h

>  <Readout Value>
14.5

$$$$
>  <Molecule>
Cc1ccc(-c2c(-c3ccc(C#N)cc3)nc(N3CCC(N)CC3)c(=O)n2C)cc1

>  <Units Of Measure>
µM·h

>  <Readout Value>
7.3

$$$$
>  <Molecule>
COc1ccc(-c2c(-c3ccc(C#N)cc3)nc(N3CCC(N)CC3)n(C)c2=O)cc1F

>  <Units Of Measure>
µM·h

>  <Readout Value>
3

$$$$
>  <Molecule>
COc1ccc(-c2c(-c3ccc(C#N)c(F)c3)nc(N3CCC(N)CC3)n(C)c2=O)cc1F.O=S(=O)(O)c1ccccc1 [PULRODEMSTAT BESILATE]

>  <Units Of Measure>
µM·h

>  <Readout Value>
2.6

$$$$
>  <Molecule>
Cc1ccc(-c2c(-c3ccc(C#N)cc3)nc(N3CCC(N)CC3)n(C)c2=O)cc1

>  <Units Of Measure>
µM·h

>  <Readout Value>
10.5

$$$$
>  <Molecule>
Cc1ccc(-c2cnc(C[C@H]3CCNC3)nc2-c2ccc(C#N)cc2)cc1

>  <Units Of Measure>
µM·h

>  <Readout Value>
1

$$$$
>  <Molecule>
COc1ccc(-c2c(-c3ccc(C#N)cc3)nc(N3CCC(N)CC3)n(C)c2=O)cc1

>  <Units Of Measure>
µM·h

>  <Readout Value>
6.1

$$$$

====

target: hERG (KCNH2) (Homo sapiens, UniProt Q12809); experiment: Inhibition of human ERG at 10 uM relative to control
Sequence (Q12809 whole entry): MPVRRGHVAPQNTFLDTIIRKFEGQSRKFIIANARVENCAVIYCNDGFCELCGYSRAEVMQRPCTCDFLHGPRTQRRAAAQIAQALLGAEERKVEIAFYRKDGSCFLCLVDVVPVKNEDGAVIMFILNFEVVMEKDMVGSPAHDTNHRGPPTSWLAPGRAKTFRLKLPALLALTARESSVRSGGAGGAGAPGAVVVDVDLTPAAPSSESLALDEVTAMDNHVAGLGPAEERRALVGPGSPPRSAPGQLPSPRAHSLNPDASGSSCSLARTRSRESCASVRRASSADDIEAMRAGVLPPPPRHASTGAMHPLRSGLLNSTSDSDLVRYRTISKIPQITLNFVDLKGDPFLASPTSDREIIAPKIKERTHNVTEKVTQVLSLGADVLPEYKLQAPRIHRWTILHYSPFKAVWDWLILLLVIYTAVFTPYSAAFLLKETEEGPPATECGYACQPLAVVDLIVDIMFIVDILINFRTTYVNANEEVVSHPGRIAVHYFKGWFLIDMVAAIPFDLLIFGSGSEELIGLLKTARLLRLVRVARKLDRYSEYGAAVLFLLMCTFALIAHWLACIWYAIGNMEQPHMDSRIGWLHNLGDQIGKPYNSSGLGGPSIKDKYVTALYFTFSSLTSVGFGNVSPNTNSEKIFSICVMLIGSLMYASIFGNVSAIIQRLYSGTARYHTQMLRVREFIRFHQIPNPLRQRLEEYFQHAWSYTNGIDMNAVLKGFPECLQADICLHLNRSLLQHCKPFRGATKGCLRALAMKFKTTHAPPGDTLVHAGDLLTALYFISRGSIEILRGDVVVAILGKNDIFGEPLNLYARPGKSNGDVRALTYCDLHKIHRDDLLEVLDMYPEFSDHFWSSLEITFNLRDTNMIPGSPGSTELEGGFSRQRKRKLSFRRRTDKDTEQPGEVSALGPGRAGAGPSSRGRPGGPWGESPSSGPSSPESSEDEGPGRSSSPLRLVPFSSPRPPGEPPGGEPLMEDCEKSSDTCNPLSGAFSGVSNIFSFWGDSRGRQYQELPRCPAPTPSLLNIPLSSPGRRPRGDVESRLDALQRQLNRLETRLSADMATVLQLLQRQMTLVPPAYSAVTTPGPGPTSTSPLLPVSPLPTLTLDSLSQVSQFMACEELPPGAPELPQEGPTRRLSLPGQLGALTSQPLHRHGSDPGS
Label Criterion not met if inhibition at 10 µM falls below 90%; label Criterion met in every other case.

>  <Molecule>
COc1ccc(-c2c(-c3ccc(C#N)cc3)nc(N3CCC(N)CC3)n(C)c2=O)cc1F

>  <Experimental Target>
hERG (KCNH2) (Homo sapiens, UniProt Q12809)

>  <Label Class>
Criterion not met

$$$$
>  <Molecule>
Cc1ccc(-c2c(-c3ccc(C#N)cc3)nc(N3CCC(N)CC3)c(=O)n2C)cc1

>  <Experimental Target>
hERG (KCNH2) (Homo sapiens, UniProt Q12809)

>  <Label Class>
Criterion met

$$$$
>  <Molecule>
COc1ccc(-c2c(-c3ccc(C#N)cc3)nc(N3CCC(N)CC3)n(C)c2=O)cc1

>  <Experimental Target>
hERG (KCNH2) (Homo sapiens, UniProt Q12809)

>  <Label Class>
Criterion not met

$$$$
>  <Molecule>
Cc1ccc(-c2c(-c3ccc(C#N)cc3)nc(N3CCC(N)CC3)n(C)c2=O)cc1

>  <Experimental Target>
hERG (KCNH2) (Homo sapiens, UniProt Q12809)

>  <Label Class>
Criterion not met

$$$$
>  <Molecule>
COc1ccc(-c2c(-c3ccc(C#N)c(F)c3)nc(N3CCC(N)CC3)n(C)c2=O)cc1F.O=S(=O)(O)c1ccccc1 [PULRODEMSTAT BESILATE]

>  <Experimental Target>
hERG (KCNH2) (Homo sapiens, UniProt Q12809)

>  <Label Class>
Criterion not met

$$$$
>  <Molecule>
Cc1ccc(-c2cnc(N3CC[C@@H]4NCC[C@@H]4C3)nc2-c2ccc(C#N)cc2)cc1

>  <Experimental Target>
hERG (KCNH2) (Homo sapiens, UniProt Q12809)

>  <Label Class>
Criterion met

$$$$

====

assay: Half life in CD1 mouse at 5 mg/kg, iv; type: ADME, organism-based; settings: in vivo

>  <Molecule>
COc1ccc(-c2c(-c3ccc(C#N)c(F)c3)nc(N3CCC(N)CC3)n(C)c2=O)cc1F.O=S(=O)(O)c1ccccc1 [PULRODEMSTAT BESILATE]

>  <half-life / h>
2

$$$$

====

test: Protein binding in mouse plasma; format: ADME, cell-free; conditions: read-out: PPB (converted)
Readout Name: fraction unbound

>  <Compound>
COc1ccc(-c2c(-c3ccc(C#N)c(F)c3)nc(N3CCC(N)CC3)n(C)c2=O)cc1F.O=S(=O)(O)c1ccccc1 [PULRODEMSTAT BESILATE]

>  <Readout Name>
fraction unbound

>  <Readout Value>
0.08

$$$$

The reported measurements were obtained from ChEMBL document CHEMBL4699559.
